Tested on: RARa:RXR (NR concentration 270 nM, RXRa partner concentration 90 nM)
experiment-summary: PBM binding z-score (relative to random genomic background probes); higher = stronger binding; sequences stand for … in GC…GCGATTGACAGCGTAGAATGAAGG
measured-quantity: PBM binding z-score

Solved entries:
>  <sequence-text>
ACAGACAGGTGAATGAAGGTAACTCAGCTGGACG

>  <reported-measurement>
0.42

$$$$
>  <sequence-text>
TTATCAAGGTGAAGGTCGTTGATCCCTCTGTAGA

>  <reported-measurement>
2.18

$$$$
>  <sequence-text>
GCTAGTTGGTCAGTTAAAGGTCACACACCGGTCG

>  <reported-measurement>
6.18

$$$$
>  <sequence-text>
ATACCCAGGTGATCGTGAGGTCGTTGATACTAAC

>  <reported-measurement>
1.95

$$$$
>  <sequence-text>
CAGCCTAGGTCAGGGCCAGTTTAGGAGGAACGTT

>  <reported-measurement>
1.32

$$$$

**Query** Consider the sequence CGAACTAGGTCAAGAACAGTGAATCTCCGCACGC . State its measured PBM binding z-score.
**Result** 1.69

**Query** Consider the sequence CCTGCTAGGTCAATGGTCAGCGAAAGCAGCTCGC . State its measured PBM binding z-score.
**Result** 1.87

**Query** Consider the sequence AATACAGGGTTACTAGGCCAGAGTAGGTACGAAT . State its measured PBM binding z-score.
**Result** 0.852

---

Test system: LXRb homodimer (NR concentration 270 nM)
experiment-summary: PBM binding z-score (relative to random genomic background probes); higher = stronger binding; sequences stand for … in GC…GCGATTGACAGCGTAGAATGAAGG
We use -0.1 as the dividing line for PBM binding z-score: on or above the line is 1 (yes), below is 0 (no).

>  <sequence-text>
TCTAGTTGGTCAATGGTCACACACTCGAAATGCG

>  <cat>
1 (yes)

$$$$
>  <sequence-text>
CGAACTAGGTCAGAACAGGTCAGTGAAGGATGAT

>  <cat>
1 (yes)

$$$$
>  <sequence-text>
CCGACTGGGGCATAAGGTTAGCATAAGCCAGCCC

>  <cat>
0 (no)

$$$$

**Query** Please check the record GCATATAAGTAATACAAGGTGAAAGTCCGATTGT and state if its PBM binding z-score is at or above -0.1.
**Result** 0 (no)

**Query** Please check the record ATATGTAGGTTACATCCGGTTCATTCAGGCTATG and state if its PBM binding z-score is at or above -0.1.
**Result** 1 (yes)

**Query** Please check the record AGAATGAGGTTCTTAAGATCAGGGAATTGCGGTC and state if its PBM binding z-score is at or above -0.1.
**Result** 0 (no)

---

Test system: LXRa:RXRa (NR concentration 270 nM, RXRa partner concentration 90 nM)
experiment-summary: PBM binding z-score (relative to random genomic background probes); higher = stronger binding; sequences stand for … in GC…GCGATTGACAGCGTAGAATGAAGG
Below, each of the sequences is paired with its reported PBM binding z-score value.
Please reply with the number alone, leaving off any unit.

Solved entries:
>  <sequence-text>
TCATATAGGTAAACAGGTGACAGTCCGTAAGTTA

>  <PBM binding z-score>
0.858

$$$$
>  <sequence-text>
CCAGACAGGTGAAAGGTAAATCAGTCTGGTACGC

>  <PBM binding z-score>
0.642

$$$$
>  <sequence-text>
CCGACTGGGACAGAAAGGTTACCATACCATCCGG

>  <PBM binding z-score>
0.493

$$$$
>  <sequence-text>
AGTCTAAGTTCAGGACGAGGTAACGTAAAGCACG

>  <PBM binding z-score>
1.56

$$$$
>  <sequence-text>
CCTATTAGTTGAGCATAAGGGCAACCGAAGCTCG

>  <PBM binding z-score>
-0.117

$$$$
>  <sequence-text>
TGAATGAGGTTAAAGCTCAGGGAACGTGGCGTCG

>  <PBM binding z-score>
1.92

$$$$
>  <sequence-text>
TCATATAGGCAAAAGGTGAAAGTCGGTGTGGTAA

>  <PBM binding z-score>
1.54

$$$$
>  <sequence-text>
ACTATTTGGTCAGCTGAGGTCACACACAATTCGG

>  <PBM binding z-score>
3.48

$$$$

**Query** Consider the sequence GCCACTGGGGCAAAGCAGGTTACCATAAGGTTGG . State its measured PBM binding z-score.
**Result** 0.154

**Query** Consider the sequence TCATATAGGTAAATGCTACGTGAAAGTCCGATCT . State its measured PBM binding z-score.
**Result** 0.681

**Query** Consider the sequence CCAGACAGGTGAGAAGGGAACTCAGCCTCGATTA . State its measured PBM binding z-score.
**Result** -0.0473

**Query** Consider the sequence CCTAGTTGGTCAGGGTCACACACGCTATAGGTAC . State its measured PBM binding z-score.
**Result** 3.05

**Query** Consider the sequence CCTAGCGGGCCAGGGTCACTCAAGCATTTCGCTT . State its measured PBM binding z-score.
**Result** 1.7

---

Tested on: RARa:RXR (NR concentration 270 nM, RXRa partner concentration 90 nM)
experiment-summary: PBM binding z-score (relative to random genomic background probes); higher = stronger binding; sequences stand for … in GC…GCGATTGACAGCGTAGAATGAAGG
Below, each of the sequences is paired with its reported PBM binding z-score value.
Please reply with the number alone, leaving off any unit.

>  <sequence-text>
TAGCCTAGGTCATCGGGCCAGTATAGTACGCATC

>  <PBM binding z-score>
2.58

$$$$
>  <sequence-text>
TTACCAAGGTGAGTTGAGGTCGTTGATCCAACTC

>  <PBM binding z-score>
2.24

$$$$
>  <sequence-text>
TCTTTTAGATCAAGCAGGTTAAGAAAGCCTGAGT

>  <PBM binding z-score>
0.889

$$$$
>  <sequence-text>
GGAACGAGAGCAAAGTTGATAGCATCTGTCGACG

>  <PBM binding z-score>
-0.331

$$$$
>  <sequence-text>
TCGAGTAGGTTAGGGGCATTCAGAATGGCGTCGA

>  <PBM binding z-score>
0.141

$$$$
>  <sequence-text>
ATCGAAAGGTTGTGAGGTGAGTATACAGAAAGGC

>  <PBM binding z-score>
1.15

$$$$
>  <sequence-text>
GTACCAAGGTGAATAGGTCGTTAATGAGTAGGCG

>  <PBM binding z-score>
1.44

$$$$
>  <sequence-text>
CAAACTAGGTCAAGAGGTCAATGTCCGCTTCCCG

>  <PBM binding z-score>
6.79

$$$$
>  <sequence-text>
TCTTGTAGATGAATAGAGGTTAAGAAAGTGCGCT

>  <PBM binding z-score>
1.86

$$$$
>  <sequence-text>
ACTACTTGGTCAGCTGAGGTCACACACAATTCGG

>  <PBM binding z-score>
4.92

$$$$

**Query** Consider the sequence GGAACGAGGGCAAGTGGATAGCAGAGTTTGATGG . State its measured PBM binding z-score.
**Result** 0.505

**Query** Consider the sequence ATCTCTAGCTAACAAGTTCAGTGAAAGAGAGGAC . State its measured PBM binding z-score.
**Result** 0.744

**Query** Consider the sequence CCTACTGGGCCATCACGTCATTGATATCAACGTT . State its measured PBM binding z-score.
**Result** 0.0611

**Query** Consider the sequence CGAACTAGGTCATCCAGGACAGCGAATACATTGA . State its measured PBM binding z-score.
**Result** 2.33

**Query** Consider the sequence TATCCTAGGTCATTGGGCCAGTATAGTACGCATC . State its measured PBM binding z-score.
**Result** 2.96

**Query** Consider the sequence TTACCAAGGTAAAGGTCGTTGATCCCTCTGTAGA . State its measured PBM binding z-score.
**Result** 2.98

**Query** Consider the sequence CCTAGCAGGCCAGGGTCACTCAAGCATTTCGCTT . State its measured PBM binding z-score.
**Result** 3.17

**Query** Consider the sequence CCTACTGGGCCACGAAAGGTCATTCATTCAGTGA . State its measured PBM binding z-score.
**Result** 5.5

**Query** Consider the sequence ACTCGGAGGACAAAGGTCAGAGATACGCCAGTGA . State its measured PBM binding z-score.
**Result** 5.15

---

Tested on: PXR:RXRa (NR concentration 270 nM, RXRa partner concentration 90 nM)
experiment-summary: PBM binding z-score (relative to random genomic background probes); higher = stronger binding; sequences stand for … in GC…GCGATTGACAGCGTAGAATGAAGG
measured-quantity: PBM binding z-score
Please reply with the number alone, leaving off any unit.

Solved entries:
>  <sequence-text>
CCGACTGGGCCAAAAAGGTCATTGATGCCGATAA

>  <reported-measurement>
4.5

$$$$
>  <sequence-text>
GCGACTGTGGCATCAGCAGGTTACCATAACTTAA

>  <reported-measurement>
-0.281

$$$$
>  <sequence-text>
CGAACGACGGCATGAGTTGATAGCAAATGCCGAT

>  <reported-measurement>
-0.722

$$$$
>  <sequence-text>
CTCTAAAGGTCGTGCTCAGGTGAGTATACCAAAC

>  <reported-measurement>
3.09

$$$$
>  <sequence-text>
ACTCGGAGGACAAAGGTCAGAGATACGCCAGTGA

>  <reported-measurement>
4.02

$$$$

**Query** Give PBM binding z-score for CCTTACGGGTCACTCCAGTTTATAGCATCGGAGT tested on PXR:RXRa (NR concentration 270 nM, RXRa partner concentration 90 nM).
**Result** 6.04

**Query** Give PBM binding z-score for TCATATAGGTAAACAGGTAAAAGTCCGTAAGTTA tested on PXR:RXRa (NR concentration 270 nM, RXRa partner concentration 90 nM).
**Result** 0.894

**Query** Give PBM binding z-score for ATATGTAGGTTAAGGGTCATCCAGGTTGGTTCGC tested on PXR:RXRa (NR concentration 270 nM, RXRa partner concentration 90 nM).
**Result** 5.87

**Query** Give PBM binding z-score for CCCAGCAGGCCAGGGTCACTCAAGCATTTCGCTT tested on PXR:RXRa (NR concentration 270 nM, RXRa partner concentration 90 nM).
**Result** 2.46

**Query** Give PBM binding z-score for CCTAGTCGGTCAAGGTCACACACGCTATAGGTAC tested on PXR:RXRa (NR concentration 270 nM, RXRa partner concentration 90 nM).
**Result** 4.4

**Query** Give PBM binding z-score for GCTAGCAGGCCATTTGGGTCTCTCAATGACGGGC tested on PXR:RXRa (NR concentration 270 nM, RXRa partner concentration 90 nM).
**Result** -0.469

**Query** Give PBM binding z-score for CGTCCAAGGTGAGAGAGGTCAGTGAATGCCGAGT tested on PXR:RXRa (NR concentration 270 nM, RXRa partner concentration 90 nM).
**Result** 3.75

**Query** Give PBM binding z-score for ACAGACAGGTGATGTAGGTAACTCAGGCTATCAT tested on PXR:RXRa (NR concentration 270 nM, RXRa partner concentration 90 nM).
**Result** -0.31

**Query** Give PBM binding z-score for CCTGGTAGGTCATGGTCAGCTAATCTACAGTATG tested on PXR:RXRa (NR concentration 270 nM, RXRa partner concentration 90 nM).
**Result** 2.02

**Query** Give PBM binding z-score for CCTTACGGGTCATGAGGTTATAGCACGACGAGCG tested on PXR:RXRa (NR concentration 270 nM, RXRa partner concentration 90 nM).
**Result** 4.44

**Query** Give PBM binding z-score for CCTAGTTGGTCACGAGGTCACACACCGGATATGA tested on PXR:RXRa (NR concentration 270 nM, RXRa partner concentration 90 nM).
**Result** 4.79

These data points were gathered from the supplement of paper PMC6555819.
